// values below are HepSE_cirrhosis; system is Hepatotoxicity; note: call rule not given here;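 note: cirrhosis hepatic side effect score taken from the DILIps (drug-induced liver injury prediction) training set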
endpoint: HepSE_cirrhosis

1) CC[C@H]1OC(=O)[C@H](C)[C@@H](O[C@H]2C[C@@](C)(OC)[C@@H](O)[C@H](C)O2)[C@H](C)[C@@H](O[C@@H]2O[C@H](C)C[C@H](N(C)C)[C@H]2O)[C@](C)(OC)C[C@@H](C)C(=O)[C@H](C)[C@@H](O)[C@]1(C)O [CLARITHROMYCIN]	0
2) COCC(=O)Nc1c(I)c(C(=O)NCC(O)CO)c(I)c(C(=O)N(C)CC(O)CO)c1I (stereo not drawn) [IOPROMIDE]	0
3) CCCCCN(C)CCC(O)(P(=O)(O)O)P(=O)(O)O [IBANDRONIC ACID]	0

The origin of these recorded values is ChEMBL document CHEMBL1909294.
